OD 450 nm values by entry
- Target Or Test System: T1, Human hepcidin peptide (hepcidin-25) (human)
- T1 construct: Synthetic 25 aa peptide; also called hep-25; Hep-25
- T1 peptide: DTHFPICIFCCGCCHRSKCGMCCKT
- Assay: titration affinity ELISA, hepcidin 100 ng/well on Nunc Immobilizer Amino plate; antibody 0 ng/ml (blank)
Readout Type: OD 450 nm (OD450)

1) BAP070-hum06 (antibody, IgG1, V domains shown, Expressed as soluble IgG1 in CHO cells, tested as supernatant; The entries stop inside FR4) VH: EVQLVQSGAEVKKPGESLRISCKGSGYTFTNYGMNWIRQPPGKGLEWIGWINTYTGEPTYADDFKGRVTISADKSISTAYLQWSSLKASDTAMYYCTTYATSWYWGQG VL: AIQLTQSPSSLSASVGDRVTITCRASESVDSYGNSFMHWYQQKPGQAPRLLIYRASNLESGVPSRFSGSGSGTDFTFTISSLQPEDIATYYCQQSNEDLTFG : 0.042
2) BAP070-01 (human-mouse chimeric MAb 583) (antibody, human IgG1, kappa, V domains shown, used as CHO cell supernatant; also called BAP070-1) VH: QIQLVQSGPELKKPGETVKISCKASGYTFTNYGMNWVKQAPGKGLKWMGWINTYTGEPTYADDFKGRFAFSLETSASTAYLQINNLKNEDTATYFCTTYATSWYWGQGTLVTVSS VL: DIVLTQSPASLAVSLGQRATISCRASESVDSYGNSFMHWYQQKPGQPPKLLIYRASNLESGIPARFSGSGSRTDFTLTINPVEADDVATYYCQQSNEDLTFGQGTKVEIKR : 0.05

The origin of these recorded values is patent US20170247448A1.
